# Test target: IRAP (Rattus norvegicus (Rat))
# Sequence (P97629 whole entry): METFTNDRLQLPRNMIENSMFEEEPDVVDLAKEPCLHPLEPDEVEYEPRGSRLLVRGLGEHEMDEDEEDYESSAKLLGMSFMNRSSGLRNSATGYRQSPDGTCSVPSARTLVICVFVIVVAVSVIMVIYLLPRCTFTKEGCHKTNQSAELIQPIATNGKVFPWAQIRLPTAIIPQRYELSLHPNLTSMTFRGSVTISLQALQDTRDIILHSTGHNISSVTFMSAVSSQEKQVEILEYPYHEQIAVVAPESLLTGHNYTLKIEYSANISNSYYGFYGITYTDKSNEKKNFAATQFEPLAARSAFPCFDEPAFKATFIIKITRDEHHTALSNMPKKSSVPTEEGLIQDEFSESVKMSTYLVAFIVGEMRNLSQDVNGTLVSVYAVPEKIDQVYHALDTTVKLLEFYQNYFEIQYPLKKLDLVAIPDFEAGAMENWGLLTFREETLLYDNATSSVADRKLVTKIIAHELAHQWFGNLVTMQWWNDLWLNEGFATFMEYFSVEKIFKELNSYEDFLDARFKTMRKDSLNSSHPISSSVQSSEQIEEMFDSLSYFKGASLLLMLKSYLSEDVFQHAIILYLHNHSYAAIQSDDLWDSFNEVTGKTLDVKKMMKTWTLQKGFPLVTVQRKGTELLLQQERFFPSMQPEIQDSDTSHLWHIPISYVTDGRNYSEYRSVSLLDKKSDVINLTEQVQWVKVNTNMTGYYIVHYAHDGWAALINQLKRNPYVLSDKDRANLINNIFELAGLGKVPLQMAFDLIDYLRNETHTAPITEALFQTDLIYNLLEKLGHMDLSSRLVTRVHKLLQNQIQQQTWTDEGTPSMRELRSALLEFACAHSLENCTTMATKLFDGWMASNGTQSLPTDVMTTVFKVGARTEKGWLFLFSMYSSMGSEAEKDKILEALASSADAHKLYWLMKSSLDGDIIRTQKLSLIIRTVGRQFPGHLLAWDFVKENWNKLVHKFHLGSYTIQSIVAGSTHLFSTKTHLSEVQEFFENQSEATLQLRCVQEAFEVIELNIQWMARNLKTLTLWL
# Experimental protocol: Inhibition of IRAP activity (AVP degradation, rat epididymal fat pad microsomes, MALDI-MS)
# Condition set: read-out: IRAP IC50, AVP 25 μM, 1 h at 37° C.
Reported pIC50 values for the following molecules.
# log scale: pIC50 equals minus log10 of the concentration in mol/L

Below, 3 molecules whose answers are already recorded.
# Molecule, pIC50
rows = [
    ("CC(C)C[C@H](N)[C@](O)(Cc1nccc2c1CCC(OCc1ccccc1)C2)C(=O)O (some centres unmarked)", 6.89),
    ("CC(C)C[C@H](N)[C@](O)(Cc1cc(C2CCOCC2)ccn1)C(=O)O", 6.80),
    ("CC(C)C[C@H](N)[C@](O)(Cc1cc(C2=CCOCC2)ccn1)C(=O)O", 6.96),
]

Answer with reported pIC50 of `COc1ccc(-c2ccnc(C[C@](O)(C(=O)O)[C@@H](N)CC(C)C)c2)cc1`
6.89

Give the measured pIC50 for `CC(C)C[C@H](N)[C@](O)(Cc1nccc2c1CCC1(CCCC1)C2)C(=O)O`
6.66

The origin of these recorded values is patent US10005762B2.
